compounds and their reported IC50
target: Prothrombin (Homo sapiens)
property.name: IC50 (nM)

>>> observed_measurement("COc1ccc(S(=O)(=O)Nn2ccc(C)c(CC(=O)NCc3ccc(C(=N)N)cc3)c2=O)cc1")
1850
>>> observed_measurement("COc1cc(Cl)ccc1S(=O)(=O)Nn1ccc(C)c(CC(=O)NCc2ccc(C(=N)N)cc2)c1=O")
307
>>> observed_measurement("Cc1ccccc1CCNn1ccc(C)c(CC(=O)NCc2ccc(C(=N)N)cc2)c1=O")
23
>>> observed_measurement("Cc1ccn(NS(=O)(=O)c2cccc3ccccc23)c(=O)c1CC(=O)NCc1ccc(C(=N)N)cc1")
1240
>>> observed_measurement("Cc1ccc(C)c(S(=O)(=O)Nn2ccc(C)c(CC(=O)NCc3ccc(C(=N)N)cc3)c2=O)c1")
578
